Test system: Staphylococcus aureus ATCC 6538-P
assay_method_text: stability in acid medium: MIC after exposure to 1 N HCl
Type: cell-based
experimental_parameters: ATCC6538; exposure time 6 hours, 1 N HCl, pH 1.2, Staphylococcus aureus ATCC 6538-P
metric: MIC (µg/mL)
Numbers only, in µg/mL.

molecule	metric	numeric_result
CC[C@H]1OC(=O)[C@H](C)[C@@H](O[C@H]2C[C@@](C)(OC)[C@@H](O)[C@H](C)O2)[C@H](C)[C@@H](O[C@@H]2O[C@H](C)C[C@H](N(C)C)[C@H]2O)[C@](C)(O)C[C@@H](C)C(=NO)[C@H](C)[C@@H](O)[C@]1(C)O [EO, erythromycin A oxime, reference compound]	MIC	0.5
CC[C@H]1OC(=O)[C@H](C)[C@@H](O[C@H]2C[C@@](C)(OC)[C@@H](O)[C@H](C)O2)[C@H](C)[C@@H](O[C@@H]2O[C@H](C)C[C@H](N(C)C)[C@H]2O)[C@](C)(O)C[C@@H](C)CN[C@H](C)[C@@H](O)[C@]1(C)O [Compound I]	MIC	1
CC[C@H]1OC(=O)[C@H](C)[C@@H](O[C@H]2C[C@@](C)(OC)[C@@H](O)[C@H](C)O2)[C@H](C)[C@@H](O[C@@H]2O[C@H](C)C[C@H](N(C)C)[C@H]2O)[C@](C)(O)C[C@@H](C)CN[C@H](C)[C@H]2OC(=O)O[C@@]21C [Compound VI]	MIC	2.5

Kindly review the next molecule as well.
Lookup: What MIC value was documented for this molecule, CC[C@H]1OC(=O)[C@H](C)[C@@H](O[C@H]2C[C@@](C)(OC)[C@@H](O)[C@H](C)O2)[C@H](C)[C@@H](O[C@@H]2O[C@H](C)C[C@H](N(C)C)[C@H]2O)[C@](C)(O)C[C@@H](C)C(=O)[C@H](C)[C@@H](O)[C@]1(C)O [E, erythromycin A] ?
Found: 20
